- assayMethodText: Plasma clearance in dog at 1 to 3 mg/kg
- Format: ADME, organism-based, Canis lupus familiaris
- Design: dose 1-3 mg/kg
measurementName: clearance (mL/min/kg)
Numbers only here, please. The scale is mL/min/kg.

Kindly note the recorded clearance for CSc1nc(N2C[C@@H]3[C@H](C2)[C@H]3C(=O)O)ccc1C(=O)NC12CC3CC(CC(C3)C1)C2 , which is 1

###

- target: CYP3A4 (Homo sapiens, UniProt P08684)
- Sequence (P08684 whole entry): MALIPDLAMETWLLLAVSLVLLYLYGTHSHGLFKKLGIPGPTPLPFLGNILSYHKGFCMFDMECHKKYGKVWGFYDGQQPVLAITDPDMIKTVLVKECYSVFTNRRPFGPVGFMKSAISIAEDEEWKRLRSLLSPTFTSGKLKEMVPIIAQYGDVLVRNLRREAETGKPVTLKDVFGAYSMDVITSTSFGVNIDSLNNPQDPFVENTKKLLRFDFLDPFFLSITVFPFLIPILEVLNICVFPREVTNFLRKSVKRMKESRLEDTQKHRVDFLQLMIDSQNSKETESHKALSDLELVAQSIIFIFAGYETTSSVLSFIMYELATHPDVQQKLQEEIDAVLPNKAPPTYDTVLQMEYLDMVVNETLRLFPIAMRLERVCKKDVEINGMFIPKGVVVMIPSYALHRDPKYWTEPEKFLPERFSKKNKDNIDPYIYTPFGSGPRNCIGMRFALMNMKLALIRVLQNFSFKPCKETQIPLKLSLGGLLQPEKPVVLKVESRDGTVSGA
- assayMethodText: Inhibition of CYP3A4 (unknown origin) at 10 uM relative to control
- Format: ADME
measurementName: inhibition at 10 µM

Kindly note the recorded inhibition at 10 µM for CSc1nc(N2C[C@@H]3[C@H](C2)[C@H]3C(=O)O)ccc1C(=O)NC12CC3CC(CC(C3)C1)C2 , which is < 25%
